Entries and their measured inhibition follow.
assayed_target: Protein kinase C theta type (Homo sapiens);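 further: reported figure is the mean percent inhibition of PKC-theta, from the GSK PKIS screen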
recorded_conditions: at 0.1 µM
Numeric answer only, unit % assumed.

[[record]]
compound = "CN(C)CCOc1ccc(-c2cc(-c3ccc4c(c3)CCC4=NO)c(-c3ccncc3)o2)cc1"
result_type = "inhibition"
readout_units = "%"
test_value = -1.06

[[record]]
compound = "NC(=O)c1cc(-c2ccncc2)cc(-c2ccccc2)c1N"
result_type = "inhibition"
readout_units = "%"
test_value = 2.27

[[record]]
compound = "O=C(Nc1ccc(Oc2ccc3[nH]c(NC(=O)c4ccccc4)nc3c2)cc1)Nc1cc(C(F)(F)F)ccc1F"
result_type = "inhibition"
readout_units = "%"
test_value = 1.79


Given the compound `O=C1Nc2ccc(I)cc2C1=Cc1cc(Br)c(O)c(Br)c1` , what is its reported inhibition?
1.74

What value of inhibition has been reported for the following compound? `Cc1ccc(C(=O)NC(C)C)cc1-c1ccc(C(=O)NCC2CC2)cc1`
-1.25

Query: inhibition; subject: `COc1cc(Nc2ncc3c(C)nc(-c4cccc(Oc5ccccc5)c4)n3n2)cc(OC)c1OC`
0.31
